For each entry below, report its Dmax value.
# system.under.test: Androgen Receptor (Homo sapiens, UniProt P10275+P40337, T878A)
# Construct: Compounds have been evaluated in this assay in LNCaP and/or VCaP cells utilizing similar protocols; endogenous in cells; host or cells: LNCaP cells
# Sequence (P10275 whole entry T878A): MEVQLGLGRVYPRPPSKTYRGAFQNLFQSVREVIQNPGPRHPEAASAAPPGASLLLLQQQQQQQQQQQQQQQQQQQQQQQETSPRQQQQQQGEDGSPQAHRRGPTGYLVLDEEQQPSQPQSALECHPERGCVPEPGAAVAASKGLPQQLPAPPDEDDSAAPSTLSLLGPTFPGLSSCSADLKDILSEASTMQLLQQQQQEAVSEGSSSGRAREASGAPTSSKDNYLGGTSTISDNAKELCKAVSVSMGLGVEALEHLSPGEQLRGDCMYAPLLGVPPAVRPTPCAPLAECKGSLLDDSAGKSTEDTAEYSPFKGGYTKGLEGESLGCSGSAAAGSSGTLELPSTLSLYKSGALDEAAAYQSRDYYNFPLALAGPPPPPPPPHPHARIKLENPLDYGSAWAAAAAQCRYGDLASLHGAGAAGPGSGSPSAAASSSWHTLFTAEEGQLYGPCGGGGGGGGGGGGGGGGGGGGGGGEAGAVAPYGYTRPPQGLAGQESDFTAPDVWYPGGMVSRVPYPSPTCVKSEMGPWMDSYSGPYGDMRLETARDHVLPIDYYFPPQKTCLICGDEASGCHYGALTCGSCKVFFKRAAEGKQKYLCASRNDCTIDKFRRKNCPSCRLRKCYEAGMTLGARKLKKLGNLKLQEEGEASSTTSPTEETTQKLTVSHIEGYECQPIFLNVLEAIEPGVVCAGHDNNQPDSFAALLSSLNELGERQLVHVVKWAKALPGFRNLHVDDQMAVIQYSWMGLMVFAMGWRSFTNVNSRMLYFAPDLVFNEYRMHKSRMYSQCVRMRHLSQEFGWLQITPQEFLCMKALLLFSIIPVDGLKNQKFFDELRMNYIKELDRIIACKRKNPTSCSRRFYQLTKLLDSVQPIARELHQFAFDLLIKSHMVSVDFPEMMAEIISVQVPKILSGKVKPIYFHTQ
# Sequence (P40337 whole entry): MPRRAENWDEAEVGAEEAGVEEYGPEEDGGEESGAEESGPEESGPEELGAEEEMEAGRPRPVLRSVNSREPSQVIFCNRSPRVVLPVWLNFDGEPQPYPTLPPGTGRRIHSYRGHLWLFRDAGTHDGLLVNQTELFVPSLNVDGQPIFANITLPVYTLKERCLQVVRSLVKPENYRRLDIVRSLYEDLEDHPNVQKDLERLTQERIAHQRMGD
# Sequence (Q15369 whole entry partner): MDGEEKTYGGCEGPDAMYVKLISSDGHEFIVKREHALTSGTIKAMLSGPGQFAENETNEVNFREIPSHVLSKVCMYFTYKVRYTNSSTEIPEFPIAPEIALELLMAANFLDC
# Sequence (Q15370 whole entry partner): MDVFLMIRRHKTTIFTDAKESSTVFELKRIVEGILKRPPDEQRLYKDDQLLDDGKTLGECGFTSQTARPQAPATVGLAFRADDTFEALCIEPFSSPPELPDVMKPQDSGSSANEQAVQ
# test.method.notes: Androgen Receptor ELISA assay (PathScan AR ELISA) in LNCaP cells: AR degradation, Dmax and DC50
# Type: cell-based
# condition.summary: highest percentage of Androgen Receptor degradation

Some solved entries appear below for comparison.
{"compound": "Cc1ncsc1-c1ccc(CNC(=O)[C@@H]2C[C@@H](O)CN2C(=O)[C@@H](NC(=O)COCCOCCCOCCCOc2ccc(N3C(=S)N(c4ccc(C#N)c(C(F)(F)F)c4)C(=O)C3(C)C)cc2)C(C)(C)C)cc1 [Example 262]", "Dmax": "26 to 50%"}
{"compound": "Cc1ncsc1-c1ccc(CNC(=O)[C@@H]2C[C@@H](O)CN2C(=O)[C@@H](NC(=O)CCCCCOCCCCOCCCCOc2ccc(N3C(=S)N(c4ccc(C#N)c(C(F)(F)F)c4)C(=O)C3(C)C)cc2)C(C)(C)C)cc1 [Example 227]", "Dmax": "26 to 50%"}
{"compound": "Cc1ncsc1-c1ccc(CNC(=O)[C@@H]2C[C@@H](O)CN2C(=O)[C@@H](NC(=O)CCOCCOCCCCCOc2ccc(N3C(=S)N(c4ccc(C#N)c(C(F)(F)F)c4)C(=O)C3(C)C)cc2)C(C)(C)C)cc1 [Example 228]", "Dmax": "51 to 70%"}
{"compound": "Cc1ncsc1-c1ccc(CNC(=O)[C@@H]2C[C@@H](O)CN2C(=O)[C@@H](NC(=O)COCCOCCCOc2ccc(N3C(=S)N(c4ccc(C#N)c(C(F)(F)F)c4)C(=O)C3(C)C)cc2)C(C)(C)C)cc1 [Example 243]", "Dmax": "51 to 70%"}
{"compound": "Cc1ncsc1-c1ccc(CNC(=O)[C@@H]2C[C@@H](O)CN2C(=O)[C@@H](NC(=O)COCCOc2ccc(N3C(=S)N(c4ccc(C#N)c(C(F)(F)F)c4)C(=O)C3(C)C)cc2)C(C)(C)C)cc1 [Example 236]", "Dmax": "26 to 50%"}

// input: 4 compounds below; output: Dmax for each
1. Cc1ncsc1-c1ccc(CNC(=O)[C@@H]2C[C@@H](O)CN2C(=O)[C@@H](NC(=O)CCCOCCOCCNC(=O)c2ccc(N3C(=S)N(c4ccc(C#N)c(C(F)(F)F)c4)C(=O)C3(C)C)cc2F)C(C)(C)C)cc1 [Example 245]
2. Cc1ncsc1-c1ccc(CNC(=O)[C@@H]2C[C@@H](O)CN2C(=O)[C@@H](NC(=O)COCCCOCCCCOc2ccc(CN3C(=S)N(c4ccc(C#N)c(C(F)(F)F)c4)C(=O)C3(C)C)cc2)C(C)(C)C)cc1 [Example 308]
3. Cc1ncsc1-c1ccc(CNC(=O)[C@@H]2C[C@@H](O)CN2C(=O)[C@@H](NC(=O)c2ccc(OCCOCCCOc3ccc(N4C(=S)N(c5ccc(C#N)c(C(F)(F)F)c5)C(=O)C4(C)C)cc3)cc2)C(C)(C)C)cc1 [Example 274]
4. Cc1ncsc1-c1ccc(CNC(=O)[C@@H]2C[C@@H](O)CN2C(=O)[C@@H](NC(=O)c2cccc(OCCOCCOc3ccc(N4C(=S)N(c5ccc(C#N)c(C(F)(F)F)c5)C(=O)C4(C)C)cc3)c2)C(C)(C)C)cc1 [Example 283]

Out:
1: 26 to 50%; 2: 51 to 70%; 3: 26 to 50%; 4: 51 to 70%
